Value source: patent US20240252641A1

- assayed.target: T1, human CD70, recombinant, N-terminally biotinylated (residues 39-193) (human, UniProt P32970 39-193, N-terminal biotin)
- T1 construct: range 39-193; the same entry is used there; also called biotinylated human CD70; CD70 biotin
- T1 sequence (looked up): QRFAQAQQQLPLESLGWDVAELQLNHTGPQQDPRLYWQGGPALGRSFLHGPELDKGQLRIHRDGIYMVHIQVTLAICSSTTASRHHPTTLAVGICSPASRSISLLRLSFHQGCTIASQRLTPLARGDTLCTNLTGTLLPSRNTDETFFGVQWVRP
- assay.protocol: CD27 blocking ELISA, 3 µM scFv, strep/HRP
Define the label as 1 (yes) when strep/HRP is strictly less than 1 and as 0 (no) in all remaining cases.

Lab note: confirm whether the reported strep/HRP for this binder is below 1, equality not counting. binder: 43-TC4-VII-C04 (scFv, His-tagged) scFv: QVQLLESGGGLVQPGRSLRLSCAASGFTFDDYAMHWVRQAPGKGLEWVSGISWNSGSIGYADSVKGRFTISRDNAKNSLYLQMNSLRAEDTAVYYCARDLVYYYGMDVWGQGTTVTVSSGGSGGSGGSGGSQSVLTQPPSVSGTPGQGVSISCSGSSSNIGWKTVNWYQQVPGMAPKLLIYSDNQRPSGVPDRFSGSKSATSASLAISGLQSEDEADYYCASWDASVNAPVFGGGTKLTVL
0 (no)

// repeat for 59-TC4-VII-F02 (scFv, His-tagged) scFv: QLQLQESGPGLVKPSGTLSLTCAVSGGSISSSNWWSWVRQPPGKGLEWIGEIYHSGSTNYNPSLKSRVTISVDKSKNQFSLKLSSVTAADTAVYYCAGPGPDPNDAFDIWGQGTMVTVSSGGSGGSGGSGGSSSELTQDPAVSVALGQTVRITCQGDSLRSYYASWYQQLPGTAPKLLIYQDSKRPSGIPERFSGSNSGNTATLTISGTQAMDEADYYCQAWDSSTAVFGGGTKLTVL and report
0 (no)
